biological target: XOD (Bos taurus); construct: XOD (7.2 units/mL, derived from bovine milk); purchased Sigma-Aldrich (St. Louis, MO, USA); host or cells: bovine milk; experiment: CD spectroscopy, secondary structure of XOD; parameters: species or system bovine; conditions: XOD with phenolic acid (300 μM solution, equal volumes); XOD alone 36.70
Sequence (P80457 whole entry): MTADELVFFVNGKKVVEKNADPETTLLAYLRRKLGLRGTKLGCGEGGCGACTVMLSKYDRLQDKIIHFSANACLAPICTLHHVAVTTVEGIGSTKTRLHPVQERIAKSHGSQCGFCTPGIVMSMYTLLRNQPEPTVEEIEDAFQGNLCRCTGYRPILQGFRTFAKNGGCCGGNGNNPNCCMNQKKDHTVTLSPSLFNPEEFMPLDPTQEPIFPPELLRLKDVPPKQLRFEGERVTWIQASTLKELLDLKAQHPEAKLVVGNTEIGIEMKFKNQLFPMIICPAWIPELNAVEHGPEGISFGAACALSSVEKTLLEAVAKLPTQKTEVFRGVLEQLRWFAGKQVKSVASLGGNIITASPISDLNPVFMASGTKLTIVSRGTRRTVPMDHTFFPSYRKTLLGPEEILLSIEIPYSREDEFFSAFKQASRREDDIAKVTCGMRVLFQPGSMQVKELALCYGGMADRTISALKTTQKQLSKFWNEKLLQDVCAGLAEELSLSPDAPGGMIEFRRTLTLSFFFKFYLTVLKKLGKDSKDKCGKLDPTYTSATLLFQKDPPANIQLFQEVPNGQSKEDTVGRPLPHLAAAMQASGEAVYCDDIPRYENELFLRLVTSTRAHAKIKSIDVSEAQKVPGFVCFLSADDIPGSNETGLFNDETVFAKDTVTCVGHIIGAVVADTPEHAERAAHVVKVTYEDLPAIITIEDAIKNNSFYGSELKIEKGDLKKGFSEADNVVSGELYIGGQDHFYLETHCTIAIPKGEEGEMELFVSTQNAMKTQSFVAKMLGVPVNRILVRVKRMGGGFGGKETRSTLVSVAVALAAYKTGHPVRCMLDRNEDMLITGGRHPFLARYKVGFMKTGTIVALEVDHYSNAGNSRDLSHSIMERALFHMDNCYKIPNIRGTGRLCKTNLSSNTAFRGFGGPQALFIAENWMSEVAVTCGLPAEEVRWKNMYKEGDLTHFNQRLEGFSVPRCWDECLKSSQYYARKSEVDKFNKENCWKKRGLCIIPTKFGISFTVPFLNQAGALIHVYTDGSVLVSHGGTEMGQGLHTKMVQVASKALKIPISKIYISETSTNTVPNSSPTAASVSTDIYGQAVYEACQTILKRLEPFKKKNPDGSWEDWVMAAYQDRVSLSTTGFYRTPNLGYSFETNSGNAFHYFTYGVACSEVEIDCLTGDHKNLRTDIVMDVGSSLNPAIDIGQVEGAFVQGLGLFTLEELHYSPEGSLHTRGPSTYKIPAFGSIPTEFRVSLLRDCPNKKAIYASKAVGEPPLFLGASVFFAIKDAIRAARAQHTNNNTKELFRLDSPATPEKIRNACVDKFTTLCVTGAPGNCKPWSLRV
outcome.measure: α-helix content of XOD (%)
Form entry: value (%) — number only.

{"cpd.smiles": "COc1cc(/C=C/C(=O)O)ccc1O", "α-helix content of XOD / %": 36.37}
{"cpd.smiles": "O=C(O)c1cc(O)c(O)c(O)c1", "α-helix content of XOD / %": 37.33}

GET /values?readout=α-helix content of XOD&item= O=C(O)/C=C/c1ccc(O)cc1 36.20

Please answer likewise for O=C(O)c1ccc(O)c(O)c1 35.77
